- System: BT-549 breast
- Test: NCI-60 one-dose screen, 48 h
- Conditions Used: 10 µM unless noted
This is part of a sample that, as a whole, favours compounds with a hit. Of some 83,000 tested, about 20% had one in any assay. Calls of active or inactive are those of the source. The calls were made as follows: active = growth percent below 10; inactive = the rest.
Give one outcome, nothing more. List: True for active, False for inactive

Record excerpt, results attached:
> print(dat)
                      structure.as.smiles  category.label
1                       O=Cc1ccc(O)c(O)c1           False
2              CCC(=O)C1C(=O)c2ccccc2C1=O           False
3      CC(C)c1ccccc1NC(=O)N1CCC(C(C)C)CC1           False
4  COc1cccc(C(=O)NNC(=O)c2cccc3ccccc23)c1           False
5                            CCNCC(C)(C)O           False
6                  ClCc1cccc2c(CCl)cccc12            True
7                         C1=NCCc2ccccc21           False
8                       Nc1nc(Cl)cc(Cl)n1           False

## Task Each compound tested received a call. Report the one for CC(C)NC(=O)OCc1c(COC(=O)NC(C)C)c(-c2ccc(Cl)cc2)n2c1CCC2 .
## Result False

## Task Each compound tested received a call. Report the one for CN(CCCN(C)CCC1CCCCC1)CCC1CCCCC1 .
## Result False

## Task Each compound tested received a call. Report the one for COCC(N)=O .
## Result False

## Task Each compound tested received a call. Report the one for COc1ccc(C)cc1NC(=O)SC(C)C .
## Result False

## Task Each compound tested received a call. Report the one for Clc1ccc(C(SCc2ccccc2)SCc2ccccc2)cc1 .
## Result False

## Task Each compound tested received a call. Report the one for N#C/C(=C\NC(=S)N=Nc1c(O)[nH]c2ccccc12)c1nc2ccccc2s1 .
## Result False

----------
- System: COLO 205 colon
- Test: NCI-60 one-dose screen, 48 h (100 = growth as untreated, 0 = no growth, -100 = all killed)
- Conditions Used: 10 µM unless noted
Compounds without any hit were thinned out: in the full panel of roughly 83,000, 20% have a hit. The source made the active and inactive calls. How the source made its calls: active means growth percent below 10; inactive means the rest.
Assay Endpoint: growth

Examples with answers:
> print(dat)
                        structure.as.smiles     test.system             endpoint.value
1                                NNc1ncccn1  COLO 205 colon            117% (inactive)
2                   CCCCNC(=O)c1ccc(OCC)cc1  COLO 205 colon            106% (inactive)
3  CN(C)CCOC(=O)Nc1ccc(Cc2ccc(NC(=O)OCCN(C)C)cc2)cc1  COLO 205 colon  84.2% [100 µM] (inactive)
4            Cc1cc2c3ccc(C)[n+](C)c3ccc2n1C  COLO 205 colon           10.7% (inactive)

Proceed to the following item.
## Task Given the entry CSc1nc2[nH]ncc2c(=O)[nH]1 , report its measured growth.
## Result 107% (inactive)

----------
- System: SNB-19 CNS
- Test: NCI-60 one-dose screen, 48 h (100 = growth as untreated, 0 = no growth, -100 = all killed)
- Conditions Used: 10 µM unless noted
About 83,000 compounds went through this panel and 20% of them were active in at least one assay; those are over-represented in the sample as a whole.
Assay Endpoint: growth (%)
State just the number; it will be interpreted in %.

Examples with answers:
> print(dat)
                        compound  assay.endpoint  u  endpoint.value
1                   OCCNc1ccccc1          growth  %             116
2  CC(CCC#N)(CCC#N)C(=O)c1ccccc1          growth  %             102
3       NC(=S)N/N=C/c1ccc(Cl)cc1          growth  %             107

## Task Given the entry Cc1ccc(S(=O)(=O)CCCl)cc1 , report its measured growth.
## Result 97.1

## Task Given the entry CC(=O)NC(CCc1ccc(Cl)c(Cl)c1)c1cccc(O)c(=O)c1 (stereo not drawn) , report its measured growth.
## Result 23.7

## Task Given the entry COC(=O)c1ccccc1C(=O)c1c(C)cc(C)cc1C , report its measured growth.
## Result 103

## Task Given the entry Cc1ccc(S(N)(=O)=O)cc1Cl , report its measured growth.
## Result 107

## Task Given the entry Oc1cccnc1CN1CCCC1 , report its measured growth.
## Result 104

## Task Given the entry Cc1ccnc(Nc2nc3ccccc3[nH]2)n1 , report its measured growth.
## Result 112

----------
- Tested on: HT29 colon
- Test: NCI-60 one-dose screen, 48 h (100 = growth as untreated, 0 = no growth, -100 = all killed)
- Conditions Used: 10 µM unless noted
The panel holds about 83,000 compounds, 20% with a hit somewhere; the sample as a whole holds those more often.
Assay Endpoint: growth (%)
State just the number; it will be interpreted in %.

> print(dat)
                                   compound  endpoint.value
1  COc1cc(C(=O)N2CCN(c3ccccc3)CC2)c2ccccc2n1             -19
2         Cc1c(Cl)cccc1NC(=S)NC(=O)c1ccccc1            90.3
3  CN=S(=O)(OCCCCCOS(=O)(=NC)c1ccc(C)cc1)c1ccc(C)cc1 (configuration not stated)            95.8
4                 O=C(c1ccc(Cl)cc1)N1CCCCC1             101
5                    CCOC(OCC)C(=O)c1ccccc1            92.7
6  CC(=O)C1C(=O)C(=O)N(c2ccc(Cl)c(Cl)c2)C1=O (configuration not stated)             107

Proceed to the following item.
## Task Given the entry COc1c(CNC(=O)CCl)cc2[nH]c(C)cc2c1CNC(=O)CCl , report its measured growth.
## Result 38.3

----------
- Test system: A498 renal
- Test: NCI-60 one-dose screen, 48 h (100 = growth as untreated, 0 = no growth, -100 = all killed)
- Conditions Used: 10 µM unless noted
About 83,000 compounds went through this panel and 20% of them were active in at least one assay; those are over-represented in the sample as a whole.
Assay Endpoint: growth (%)
State just the number; it will be interpreted in %.

> print(dat)
                              compound  assay.endpoint  endpoint.value
1            CC(C)c1ccc(C(=O)OCCCl)cc1          growth            92.7
2   Nc1c(Br)cc(O)c2c1C(=O)c1ccccc1C2=O          growth            76.4
3  Clc1ccc(C(SCc2ccccc2)SCc2ccccc2)cc1          growth            81.3
4         O=C(NC(=S)N1CC=CCC1)c1ccccc1          growth            93.1
5                    Oc1cccnc1CN1CCCC1          growth             108
6         CCOC(=N)CC(=O)Nc1cccc(C)c1Cl          growth             120

## Task Given the entry O=C(CCl)Nc1ccccc1SCc1cc(Cl)cc2c1OCOC2 , report its measured growth.
## Result 103

## Task Given the entry Nc1ccn(C2OC(CO)C(O)C2F)c(=O)n1 (stereo not given) , report its measured growth.
## Result 88.5

## Task Given the entry Cc1ccc2[nH]c3ccccc3c2c1 , report its measured growth.
## Result 82.5

----------
- System: HT29 colon
- Test: NCI-60 one-dose screen, 48 h
- Conditions Used: 10 µM unless noted
About 83,000 compounds went through this panel and 20% of them were active in at least one assay; those are over-represented in the sample as a whole. Calls of active or inactive are those of the source. How the source made its calls: active means growth percent below 10; inactive means the rest.
Give one outcome, nothing more. List: T (active), F (inactive)

Record excerpt, results attached:
> print(dat)
                                   compound  category.label
1  Cc1onc(-c2c(F)cccc2Cl)c1-c1ncc(-c2ccc(Br)cc2)o1               F
2                  Oc1ccc2ccccc2c1CN1CCOCC1               F
3                              Nc1cc(N)ncn1               F
4                       CCOc1ccc(C(=O)O)cc1               F

## Task Each compound tested received a call. Report the one for Cc1ccc(C)c(CCO)c1 .
## Result F

## Task Each compound tested received a call. Report the one for COC(c1ccc2c(c1)OCO2)C(C)Br (configuration not stated) .
## Result F

## Task Each compound tested received a call. Report the one for O=C1NC(=O)C(c2ccccc2)O1 (configuration not stated) .
## Result F

## Task Each compound tested received a call. Report the one for CC(=O)OC/C(C)=C\CC(C)COC(C)=O (configuration not stated) .
## Result F

## Task Each compound tested received a call. Report the one for CCN(C(=O)Nc1ccccc1Cl)c1ccccc1 .
## Result F

## Task Each compound tested received a call. Report the one for CN(C)c1ccc2c(N(C)C)cc(N(C)C)nc2c1 .
## Result F

## Task Each compound tested received a call. Report the one for CC(=O)NNC(=S)/N=C\C(C(=O)c1ccccc1)=C(/O)c1ccccc1 .
## Result F

## Task Each compound tested received a call. Report the one for COc1ccc(NNS(=O)(=O)O)cc1 .
## Result F

## Task Each compound tested received a call. Report the one for O=Cc1ccc(O)c(O)c1 .
## Result F

## Task Each compound tested received a call. Report the one for N#Cc1ccc2nc[nH]c2c1 .
## Result F

## Task Each compound tested received a call. Report the one for CC(=O)O[C@H]1CC[C@]2(C)C3=C(C(=O)C[C@H]2C1(C)C)[C@]1(C)CC[C@H]([C@H](C)CCC(=O)O)[C@@]1(C)CC3=O .
## Result F

## Task Each compound tested received a call. Report the one for C=CCN1CCCC1=O .
## Result F

## Task Each compound tested received a call. Report the one for O=C(O)c1ccc(OCc2ccccc2)cc1 .
## Result F

## Task Each compound tested received a call. Report the one for O=C(CC(CC(=O)c1ccccc1)c1ccccn1)c1ccccc1 .
## Result F

## Task Each compound tested received a call. Report the one for CC(c1ccccc1)N1C(=O)CSC1=S (configuration not stated) .
## Result T

## Task Each compound tested received a call. Report the one for Nc1ncc([N+](=O)[O-])cn1 .
## Result F

## Task Each compound tested received a call. Report the one for CCCC(=O)CC(=O)c1ccccc1 .
## Result F

## Task Each compound tested received a call. Report the one for CC(=O)Oc1c(Cl)cccc1-c1ccccc1 .
## Result F

## Task Each compound tested received a call. Report the one for COc1cc(C(=O)O)c(O)c(C(C)(C)C)c1 .
## Result F

## Task Each compound tested received a call. Report the one for COc1cc(C(=O)NC(=S)NCc2ccncc2)cc(OC)c1OC .
## Result F

Data origin: PubChem BioAssay (NCI)
